test system: MALME-3M melanoma; test: NCI tumour cell line growth inhibition, 48 h
Kind request: treat 20 µM as inclusive, so TGI at 20 µM or higher is met, anything lower is not met.

Query block: # bool: TGI of "COc1cc(-c2cc(-c3ccc(N(C)C)cc3)nc(N3CCC(O)CC3)c2C#N)cc(OC)c1OC" >= 20 µM
Result block: not met

Query block: # bool: TGI of "COc1ccccc1/C=C1\COc2ccc(O)c(O)c2C1=O" >= 20 µM
Result block: not met

Query block: # bool: TGI of CC(=O)NC1(C)CCC(C(C)(C)NC(C)=O)CC1 (stereo unspecified) >= 20 µM
Result block: met

Query block: # bool: TGI of "c1ccc2c(c1)c1c(n2CCOCCN2CCCCC2)CCCC1" >= 20 µM
Result block: met

Query block: # bool: TGI of "CCSSCS(C)(=O)=O" >= 20 µM
Result block: met

Query block: # bool: TGI of "FC(F)(F)c1ccc2nc(-c3nc(-c4ccccc4)n4ccccc34)[nH]c2c1" >= 20 µM
Result block: not met

Query block: # bool: TGI of COc1cc(C2c3cc4c(cc3C(O)C3CCC(=O)N23)OCO4)cc(OC)c1OC (stereo unspecified) >= 20 µM
Result block: met

Query block: # bool: TGI of COC(c1ccsc1)C(C#N)(C#N)N=Cc1ccsc1 (stereo unspecified) >= 20 µM
Result block: met

Query block: # bool: TGI of COc1cc2c(cc1OC)C1CN3C(=O)CCC3C(O)C1c1cc(OC)c(OC)cc1-2 (stereo unspecified) >= 20 µM
Result block: met

Query block: # bool: TGI of "COc1ccc(CN2CCc3c(Cl)nc(N)nc3C2=O)c(OC)c1" >= 20 µM
Result block: met

Query block: # bool: TGI of CC(C)c1ccc2c(c1)CCC1C(C)(C)[C@@H](O)CC[C@]21C (stereo partly specified) >= 20 µM
Result block: met

Query block: # bool: TGI of COC(=O)C1Cc2c([nH]c3ccccc23)[C@H](CC(C)C)N1 (stereo partly specified) >= 20 µM
Result block: met

Query block: # bool: TGI of O=C1NN=C(c2ccc(Cl)cc2)CC1C1C(=O)N(c2ccccc2)N=C1c1ccccc1 (stereo unspecified) >= 20 µM
Result block: met

Query block: # bool: TGI of CCS[C@H]1NC(=O)C1[C@H](C)O[Si](C)(C)C(C)(C)C (stereo partly specified) >= 20 µM
Result block: met

Query block: # bool: TGI of "Cn1cc(-c2ccc3cc(-c4ccc(CC(=O)Nc5cc(C(C)(C)C)nn5C)cc4)cnc3c2)cn1" >= 20 µM
Result block: met

Query block: # bool: TGI of CC1(C)C2CCC1(CS(=O)(=O)Nc1ccccc1)C(=O)C2 (stereo unspecified) >= 20 µM
Result block: met

Query block: # bool: TGI of "CC(C)(O)Cn1c(=O)c(Oc2ccc(F)cc2F)cc2cnc(NC3CCOCC3)nc21" >= 20 µM
Result block: met

Query block: # bool: TGI of "CCCSc1cc(Cl)c(C)cc1S(=O)(=O)n1ccnc1OCCCN(C)C" >= 20 µM
Result block: met

Query block: # bool: TGI of "COC12C=C/C(=C(/C(=O)OCc3ccncn3)C(=O)CCCCCCCCC3(OC)C=C/C(=C(/C(=O)OCc4ccncn4)C(=O)CCCCCCCC1)O3)O2" >= 20 µM
Result block: not met

Query block: # bool: TGI of Nc1ccc2c(c1)C1Oc3ccccc3CC1CO2 (stereo unspecified) >= 20 µM
Result block: met

Query block: # bool: TGI of "COc1cc(/C=C2\C[C@H]3[C@@H]4CC=C5C[C@@H](N6CCCC6)CC[C@]5(C)[C@H]4CC[C@]3(C)[C@H]2O)cc(OC)c1OC" >= 20 µM
Result block: met

Recorded values, source PubChem BioAssay (NCI).
